MEASURED TARGET: T1, cyno TREM-1-His protein (cynomolgus monkey, UniProt A0A2K5VHG8 21-204)
T1 construct: extracellular domain; Soluble analyte of the Octet assay; not shown: His tag
T1 sequence: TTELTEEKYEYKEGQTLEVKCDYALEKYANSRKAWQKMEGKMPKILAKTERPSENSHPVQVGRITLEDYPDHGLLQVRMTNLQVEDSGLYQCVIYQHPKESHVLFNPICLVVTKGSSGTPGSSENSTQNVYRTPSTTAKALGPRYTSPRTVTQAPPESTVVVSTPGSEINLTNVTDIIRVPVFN
RUN DESCRIPTION: BLI (Octet HTX), antibody captured on anti-human Fc sensor, cyno TREM-1-His as analyte, 1:1 model
Lab note - cut at 6 nM for Kd: Condition met if strictly below, Condition not met if not.

Below are worked cases with known answers.
BINDER	CAT
64D7 (antibody, V domains shown) VH: QVQLVQSGAEVKKPGASVKVSCKASGYTFTSYDINWVRQATGQGLEWMGWMNPNRGNTGYVKKFQGRVTMTRNTSISTAYMELSSLRSEDTAVYYCARRRAVYRSSWEWYFDLWGRGTLVTVSS VL: DTQMTQSPSSLSASEGDRVTITCQASQDIFNDLNWYQEKPGKAPKLLIYHASNLETGVPSRFSGSGSGTDYTFTISSLQPEDIATYYCQQYGNLPLTFGGGTKVEIK	Condition met
3E12 (antibody, V domains shown) VH: QVQLVQSGAEVKKPGASVKVSCKASGYTFNGYYIHWVRQAPGQGLEWMGWLNPNSGGANYAQKFQGWVTMTRDTSISTAYMELSRLTSDDTAVYYCARDQRKTTVTPFEYWGQGTLVTVSS VL: SYELTQPPSVSVSPGQTASITCSGDKLGERNVCWYQLKPGQSPILVIYQDNKRPSGIPERFSGSKSGNTAILTISGTQAMDEADYYCQAWDRNVVFGGGTKLTVL	Condition met
30H2 (antibody, V domains shown, also called 19330) VH: EVQVLESGGGLVQPGESLRLSCTASGFTFNAYAMSWVRQAPGKGLEWVSTISGSGSTTYYADSVKGRFTISRDNSKNTLDLQMNSLRAADTAVYYCAKVAGSNFFFDHWGQGTLVTVSS VL: EIVMTQSPATLSVSPGERATLSCRASQSINSNLAWYQQKPGQAPRLLIYGAYTRATGIPDRFSGSGSGTEFTLTISSLQSEDFAVYYCQEFIMWPPWTFGLGTQVEIK	Condition met
49A2 (antibody, V domains shown, also called 19333) VH: EVQLVESGGGLVQPGGSLRLSCAASGFTFSSNWMSWVRQAPGKGLDWMASMKQDGSEIYYVDSVKGRFTISRDNAKNSLHLQMNSLRAEDTAVYYCVRGGWRFESWGQGALVTVSS VL: EIVMTQSPATLSVSPGERATLSCRASQSVSSNLAWYQQKSGQAPRLLIYGASIRATGIPARVSGSGSGTEFTFTISSLQSEDFAVYYCQQYKNWPLTLGGGTKVEIK	Condition met

Below 6 nM on Kd? Entry 50A12 (antibody, V domains shown) VH: EVQLVESGGGLVQPGGSLRLSCAASGFTFSSYWMSWVRQAPGKGLEWVANIKQDGSEEYYVDSVKGRFTISRDNAKNSLFLQMNSLRAEDTAVYYCARDYGDSFDYWGQGTLVTVSS VL: DIQMTQSPSSVSASVGDRVTITCRASQGIRKWLAWYQQKPGRAPKLLIYAASRLQSGVPSRFSGSGSGTDFTLTISSLRPEDFATYYCLQAHGFPWTFGQGTKVEIK
Condition not met
